System: hGcgR (Homo sapiens, UniProt P47871)
Sequence (P47871 26-477): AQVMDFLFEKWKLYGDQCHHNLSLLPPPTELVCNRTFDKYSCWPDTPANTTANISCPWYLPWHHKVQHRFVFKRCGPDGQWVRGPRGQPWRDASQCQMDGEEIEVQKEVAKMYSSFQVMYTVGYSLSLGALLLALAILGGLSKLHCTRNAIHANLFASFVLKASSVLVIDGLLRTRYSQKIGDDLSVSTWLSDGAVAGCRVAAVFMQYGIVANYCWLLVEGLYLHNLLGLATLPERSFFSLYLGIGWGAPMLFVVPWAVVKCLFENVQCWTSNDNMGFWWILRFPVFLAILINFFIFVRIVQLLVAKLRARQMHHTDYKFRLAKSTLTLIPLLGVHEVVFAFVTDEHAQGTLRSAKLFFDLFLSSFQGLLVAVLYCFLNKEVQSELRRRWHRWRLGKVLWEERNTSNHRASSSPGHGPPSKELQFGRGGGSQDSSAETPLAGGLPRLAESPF
Assay Explanation: Functional cAMP activation in the presence of 0.1% casein (no HSA);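 note: intracellular cAMP rise after 30 min at 37 °C, read by HTRF against a cAMP standard curve, scaled from buffer only (0%) to maximal control ligand response (100%)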
Format: cell-based
Condition Info: in the presence of 0.1% casein (no HSA); geometric mean; read-out: Relative cAMP EC50, hGcgR
Starred links: 1 amine or outer side, 2 acyl side, 3 side chain; linkers in the order of their positions; H or OH if unused. Non-standard residues stand in square brackets, D forms with d. Groups on a side chain read outwards from the residue. *: point of attachment. C18 diacid = O=C(O)CCCCCCCCCCCCCCCCC(=O)*; γGlu = O=C(O)[C@H](CCC(=O)[*:2])N[*:1]; αMe4Pal = C[C@](N)(Cc1ccncc1)C(=O)O; 4Pal = N[C@@H](Cc1ccncc1)C(=O)O; αMeL = CC(C)C[C@](C)(N)C(=O)O; Orn = NCCC[C@H](N)C(=O)O; AEEA = NCCOCCOCC(=O)O; Aib = CC(C)(N)C(=O)O
Test Readout: EC50 (nM)
The response must be a number in nM with no trailing unit.

A selection of reference data follows.
Substance: H-Y[Aib]QGTFTSDFS[Orn][αMeL]LDKK([AEEA-γGlu-C18 diacid])AQ[Aib]AFIEYLLEGGPSSGAPPPGGE-NH2 [Example 63]
System: hGcgR (Homo sapiens, UniProt P47871)
Reported Result: 4.1
//
Substance: H-Y[Aib]QGTFTSDFS[Orn][αMeL]LDKK([AEEA-AEEA-γGlu-C18 diacid])AQ[Aib]AFIEYLLE[Aib]GPSSGEPPPSGT-NH2 [Example 167]
System: hGcgR (Homo sapiens, UniProt P47871)
Reported Result: 5.05

Challenge: Recorded EC50 for H-Y[Aib]QGTFTSD[4Pal]SQ[αMeL]LDKK([dE-γGlu-C18 diacid])AQ[αMe4Pal]AFIEYLIE[Aib]GPSSGAPPPSGS-NH2 [Example 920] , please?
Response given: 4.61

* * *

System: hGIPR (Homo sapiens, UniProt P48546)
Sequence (P48546 22-466): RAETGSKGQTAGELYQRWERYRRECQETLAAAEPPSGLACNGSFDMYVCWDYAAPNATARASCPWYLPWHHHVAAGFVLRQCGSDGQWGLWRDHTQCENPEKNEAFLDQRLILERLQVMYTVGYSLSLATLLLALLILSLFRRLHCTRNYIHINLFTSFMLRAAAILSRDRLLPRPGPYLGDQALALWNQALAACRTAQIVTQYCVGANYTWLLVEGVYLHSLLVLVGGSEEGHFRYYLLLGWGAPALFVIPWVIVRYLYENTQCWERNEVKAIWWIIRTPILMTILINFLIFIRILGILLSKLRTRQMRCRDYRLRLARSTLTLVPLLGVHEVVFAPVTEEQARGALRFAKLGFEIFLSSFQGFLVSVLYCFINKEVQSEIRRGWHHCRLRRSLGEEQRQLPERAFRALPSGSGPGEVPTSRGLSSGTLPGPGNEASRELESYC
Assay Explanation: Functional cAMP activity in the presence of 1% HSA
Assay type: cell-based
Condition Info: read-out: cAMP Rel EC50, hGIPR
pEC50: −log10 of the molar value. Starred links: 1 amine or outer side, 2 acyl side, 3 side chain; linkers in the order of their positions; H or OH if unused. Non-standard residues stand in square brackets, D forms with d. Groups on a side chain read outwards from the residue. No end group written: not given here. *: point of attachment. C20 diacid = O=C(O)CCCCCCCCCCCCCCCCCCC(=O)*; C18 diacid = O=C(O)CCCCCCCCCCCCCCCCC(=O)*; αMePhe(2-F) = C[C@](N)(Cc1ccccc1F)C(=O)O; γGlu = O=C(O)[C@H](CCC(=O)[*:2])N[*:1]; αMe4Pal = C[C@](N)(Cc1ccncc1)C(=O)O; αMeY = C[C@](N)(Cc1ccc(O)cc1)C(=O)O; 4Pal = N[C@@H](Cc1ccncc1)C(=O)O; αMeL = CC(C)C[C@](C)(N)C(=O)O; αMeS = C[C@](N)(CO)C(=O)O; Orn = NCCC[C@H](N)C(=O)O; AEEA = NCCOCCOCC(=O)O; Aib = CC(C)(N)C(=O)O
We use 8 as the dividing line for pEC50: on or above the line is rule met, below is rule not met.

A selection of reference data follows.
Substance: H-Y[Aib]QGTFTSDFS[Orn][αMeL]LDKK([AEEA-γGlu-C18 diacid])AQ[αMe4Pal]AFIEYLIE[Aib]GESSGAPPPSGE-NH2 [Example 228]
Label Value: rule not met
--
Substance: H-Y[Aib]QGTFTSD[4Pal]SQ[αMeL]LD[Orn]K([dE-γGlu-C18 diacid])AQ[αMe4Pal]QFIE[αMeY]LLAGGPSSGAPPPSGSEEE-NH2 [Example 1084]
Label Value: rule not met
--
Substance: H-Y[Aib]QGT[αMePhe(2-F)]TSD[4Pal][αMeS]I[αMeL]LD[Orn][Orn]([AEEA-γGlu-C18 diacid])AQ[αMe4Pal]EFI[dE][αMeY]LIEGGPSSGAPPPSGGGE-NH2 [Example 1213]
Label Value: rule met
--
Substance: H-Y[Aib]QGT[αMePhe(2-F)]TSD[4Pal][αMeS]ILLD[Orn]K([γGlu-γGlu-C18 diacid])AQ[Aib][Orn]FI[dE]YLIEGGPSSGEPPPEGSEE-NH2 [Example 603]
Label Value: rule met

Challenge: Has H-Y[Aib]QGT[αMePhe(2-F)]TSDYSILLDKAAQK([AEEA-γGlu-C20 diacid])[Orn]FIEYLIEGGPSSGEPPPSEG-NH2 [Example 306] a recorded pEC50 greater than or equal to 8?
Response given: rule not met

Challenge: Test whether the substance H-Y[Aib]QGTFTSDFS[Orn][αMeL]LDKK([AEEA-γGlu-C18 diacid])AQ[Aib]AFIEWLLEGGSSSGAPPPGGT-NH2 [Example 272] records pEC50 of 8 or higher.
Response given: rule not met

Challenge: Check this substance for pEC50 at or above 8: Y[Aib]QGT[αMePhe(2-F)]TSD[4Pal][αMeS]I[αMeL]LD[Orn]K([γGlu-γGlu-C18 diacid])AQ[Aib][Orn]FI[dE][αMeY]LQEGGPSSGEPPPSGTE-NH2 [Example 504]
Response given: rule met
